System: NCI/ADR-RES ovarian
Assay: NCI-60 one-dose screen, 48 h
Settings: 10 µM
The panel holds about 83,000 compounds, 20% with a hit somewhere; the sample as a whole holds those more often. Calls of active or inactive are those of the source. Rule for the calls: active = growth percent below 10; inactive = the rest.
Labels: active, inactive

{"Compound": "CC(=C\\C(=O)Oc1ccc2c3c1OC1C(O)CCC4(O)C(C2)N(CC2CCC2)CCC314)/C=C1\\CCCc2ccccc21 (stereo not given)", "Assigned Category": "inactive"}
{"Compound": "COC(=O)CCn1c(-c2ccc(-n3cc(-c4ccc(O[C@H]5O[C@@H]6OC7(C)CC[C@H]8[C@H](C)CC[C@@H]([C@H]5C)[C@@]68OO7)cc4)nn3)cc2)nc2ccccc21", "Assigned Category": "inactive"}
{"Compound": "O=C(/C=C/c1ccc(F)cc1)c1nc2ccccc2n1Cc1ccc(Br)cc1", "Assigned Category": "active"}
{"Compound": "COCCOCCOCCOc1ccc(-n2cc(CCCN(CCNc3ccnc4cc(Cl)ccc34)C(=O)CCC(=O)O[C@@H]3O[C@@H]4OC5(C)CC[C@H]6[C@H](C)CC[C@@H]([C@H]3C)[C@@]46OO5)nn2)cc1", "Assigned Category": "inactive"}
{"Compound": "CC[C@]12C=CCN3CC[C@@]4(c5ccc(OC)cc5N(C)[C@H]4[C@@](O)(C(=O)OC)[C@@H]1OC(=O)CCCC[P+](c1ccc(OC)cc1)(c1ccc(OC)cc1)c1ccc(OC)cc1)[C@@H]32", "Assigned Category": "inactive"}
{"Compound": "O=C(NC([Se])=NC1CCCCC1)c1ccc2c(c1)OCO2", "Assigned Category": "inactive"}
{"Compound": "CC[C@]12C=CCN3CC[C@@]4(c5ccc(OC)cc5N(C)[C@H]4[C@@](O)(C(=O)OC)[C@@H]1OC(=O)CCC[P+](c1ccc(C)cc1)(c1ccc(C)cc1)c1ccc(C)cc1)[C@@H]32", "Assigned Category": "inactive"}
{"Compound": "O=C(/C=C/c1ccc(Cl)cc1)c1nc2ccccc2n1Cc1ccc(Br)cc1", "Assigned Category": "inactive"}
{"Compound": "COc1cc2cc(C(=O)N3C[C@@H](CCl)c4c3cc(OC(=O)N3CCN(C)[C@@H]5CSSC[C@H]53)c3ccccc43)[nH]c2c(OC)c1OC", "Assigned Category": "active"}
{"Compound": "CC(=O)Oc1ccccc1C(=O)[Se]C(=NC(C)C)NC(C)C", "Assigned Category": "active"}
{"Compound": "O=C(/C=C/c1ccccc1Cl)c1nc2ccccc2n1Cc1ccc(F)cc1", "Assigned Category": "active"}
{"Compound": "CN(C)CCc1cn(C2CCC2)c2cccc(O)c12", "Assigned Category": "inactive"}
{"Compound": "COc1cc(OC)c(S(=O)(=O)N(CCCl)CCCl)cc1C(=O)/C=C/c1cc(OC)c(OC)c(OC)c1", "Assigned Category": "active"}
{"Compound": "CC[C@]12C=CCN3CC[C@@]4(c5ccc(OC)cc5N(C)[C@H]4[C@@](O)(C(=O)OC)[C@@H]1OC(=O)CCC[P+](c1ccc(F)cc1)(c1ccc(F)cc1)c1ccc(F)cc1)[C@@H]32", "Assigned Category": "inactive"}
{"Compound": "O=C(/C=C/c1ccc(F)cc1)c1nc2ccccc2n1Cc1ccc(F)cc1", "Assigned Category": "active"}
